# ASSAYED_TARGET: natural β-amyloid peptide β-AP1-40 (human)
# Sequence (peptide, as listed by the source): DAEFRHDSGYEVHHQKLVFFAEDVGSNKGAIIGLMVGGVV
# EXPERIMENTAL_DETAILS: cell-based or functional assay
* marks the point of attachment. Cholyl = C[C@H](CCC(=O)*)[C@H]1CC[C@H]2[C@@H]3[C@H](O)C[C@@H]4C[C@H](O)CC[C@]4(C)[C@H]3C[C@H](O)[C@]12C

BINDER | % Inucl'n; nucleation assay; 100 mole % (%)
Cholyl-FFVL-OH (SMILES CC(C)C[C@H](NC(=O)[C@@H](NC(=O)[C@H](Cc1ccccc1)NC(=O)[C@H](Cc1ccccc1)NC(=O)CC[C@@H](C)[C@H]1CC[C@H]2[C@@H]3[C@H](O)C[C@@H]4C[C@H](O)CC[C@]4(C)[C@H]3C[C@H](O)[C@]12C)C(C)C)C(=O)O) [CA-FFVL-oh] | 33
Cholyl-LAFFA-OH (SMILES CC(C)C[C@H](NC(=O)CC[C@@H](C)[C@H]1CC[C@H]2[C@@H]3[C@H](O)C[C@@H]4C[C@H](O)CC[C@]4(C)[C@H]3C[C@H](O)[C@]12C)C(=O)N[C@@H](C)C(=O)N[C@@H](Cc1ccccc1)C(=O)N[C@@H](Cc1ccccc1)C(=O)N[C@@H](C)C(=O)O) [CA-LAFFA-oh] | 47
Cholyl-LVFAA-OH (SMILES CC(C)C[C@H](NC(=O)CC[C@@H](C)[C@H]1CC[C@H]2[C@@H]3[C@H](O)C[C@@H]4C[C@H](O)CC[C@]4(C)[C@H]3C[C@H](O)[C@]12C)C(=O)N[C@H](C(=O)N[C@@H](Cc1ccccc1)C(=O)N[C@@H](C)C(=O)N[C@@H](C)C(=O)O)C(C)C) [CA-LVFAA-oh] | 40

Provenance of the data: patent US7658917
